B1: BTBD10 (parent)
chain: FVYENAKEGARNIRTSERVTLIVD

- Variants of: B1
- assay_info: protein stability index of a GFP-peptide fusion (GPS, HEK-293T) (PSI 1-6); higher = more stable;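 further: lentivirally expressed fusions sorted by FACS into six bins by GFP to DsRed ratio, PSI derived from sequencing read proportions per bin multiplied by bin number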
- condition_details: c terminus: a fixed tail appended
Catalogue of protein stability index readings, one per entry.
Please respond with just the number, no unit label.

change | protein stability index
R14E | 2.18
A10C | 1.84
K7R | 1.86
L21Y | 1.89
I13N | 2.52

Query: Consider the variant shown here: Y3E What is its recorded protein stability index?
Result: 3.75

Query: Consider the variant shown here: E17V What is its recorded protein stability index?
Result: 3.52

Query: Consider the variant shown here: R18N What is its recorded protein stability index?
Result: 2.07

Query: Consider the variant shown here: T20P What is its recorded protein stability index?
Result: 3.04

Query: Consider the variant shown here: N5A What is its recorded protein stability index?
Result: 1.9

Query: Consider the variant shown here: I22M What is its recorded protein stability index?
Result: 2.77

Query: Consider the variant shown here: A10E What is its recorded protein stability index?
Result: 2.79

Query: Consider the variant shown here: V19Y What is its recorded protein stability index?
Result: 2.35

Query: Consider the variant shown here: V23D What is its recorded protein stability index?
Result: 2.39

Query: Consider the variant shown here: A6G What is its recorded protein stability index?
Result: 1.97

Query: Consider the variant shown here: T15E What is its recorded protein stability index?
Result: 2.48

Query: Consider the variant shown here: T15N What is its recorded protein stability index?
Result: 2.11

Query: Consider the variant shown here: N12W What is its recorded protein stability index?
Result: 3.12

Query: Consider the variant shown here: E8V What is its recorded protein stability index?
Result: 1.47

Query: Consider the variant shown here: T20D What is its recorded protein stability index?
Result: 1.92

Query: Consider the variant shown here: V23A What is its recorded protein stability index?
Result: 2.26

Query: Consider the variant shown here: T20Q What is its recorded protein stability index?
Result: 2.18
